Target: UniProtKB P0A749
Sequence (P0A749 whole entry): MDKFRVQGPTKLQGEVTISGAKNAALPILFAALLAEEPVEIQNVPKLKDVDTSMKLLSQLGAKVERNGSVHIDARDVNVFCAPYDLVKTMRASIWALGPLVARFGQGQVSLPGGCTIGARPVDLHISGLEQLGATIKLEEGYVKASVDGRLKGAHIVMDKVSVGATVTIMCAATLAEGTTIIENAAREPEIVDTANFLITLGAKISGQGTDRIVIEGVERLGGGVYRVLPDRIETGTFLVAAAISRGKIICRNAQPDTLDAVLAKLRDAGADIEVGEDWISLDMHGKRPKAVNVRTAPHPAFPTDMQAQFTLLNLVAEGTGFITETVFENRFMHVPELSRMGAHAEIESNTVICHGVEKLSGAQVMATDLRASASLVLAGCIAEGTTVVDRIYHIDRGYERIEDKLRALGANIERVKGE
Assay: MurA inhibition assay (malachite green, orthophosphate release)
Format: biochemical
Settings: 30 min preincubation
experimentalReadout: Hill coefficient, 30 min

Asked: Item O=c1cc(-c2ccccc2)oc2cc(O)c(O)c(O)c12 : provide Hill coefficient, 30 min
Given back: 1.4

Asked: Report Hill coefficient, 30 min, nothing else, for this compound: O=c1cc(-c2ccc(O)c(O)c2)oc2cc(O)cc(O)c12
Given back: 1.3

Asked: State, in one line, measured Hill coefficient, 30 min of O=C1c2c(O)cc(O)cc2OC(c2ccc(O)c(O)c2)C1O (centres unmarked)
Given back: 0.5

Asked: Annotate the compound O=C1c2c(O)cc(O)cc2O[C@H](c2cc(O)c(O)c(O)c2)[C@H]1O with its measured Hill coefficient, 30 min.
Given back: 0.8

Asked: Give reported Hill coefficient, 30 min value for Oc1cc(O)c2c(c1)O[C@H](c1ccc(O)c(O)c1)[C@@H](O)[C@H]2O
Given back: 2.9

Asked: Determine its reported Hill coefficient, 30 min: C[C@@H]1O[C@@H](Oc2c(-c3ccc(O)c(O)c3)oc3cc(O)cc(O)c3c2=O)[C@H](O)[C@H](O)[C@H]1O
Given back: 1.1

Asked: For the compound O=c1c(O)c(-c2cc(O)c(O)c(O)c2)oc2cc(O)cc(O)c12 , report Hill coefficient, 30 min.
Given back: 1.9

Asked: Item O=c1c(O)c(-c2ccc(O)c(O)c2)oc2cc(O)cc(O)c12 : provide Hill coefficient, 30 min
Given back: 1.3
